biological target: FLAG-tagged human Ang2 (human) (UniProt O15123); experiment: competition ELISA: FLAG-hAng2 binding to coated hTie2-Fc
Sequence (O15123 19-496): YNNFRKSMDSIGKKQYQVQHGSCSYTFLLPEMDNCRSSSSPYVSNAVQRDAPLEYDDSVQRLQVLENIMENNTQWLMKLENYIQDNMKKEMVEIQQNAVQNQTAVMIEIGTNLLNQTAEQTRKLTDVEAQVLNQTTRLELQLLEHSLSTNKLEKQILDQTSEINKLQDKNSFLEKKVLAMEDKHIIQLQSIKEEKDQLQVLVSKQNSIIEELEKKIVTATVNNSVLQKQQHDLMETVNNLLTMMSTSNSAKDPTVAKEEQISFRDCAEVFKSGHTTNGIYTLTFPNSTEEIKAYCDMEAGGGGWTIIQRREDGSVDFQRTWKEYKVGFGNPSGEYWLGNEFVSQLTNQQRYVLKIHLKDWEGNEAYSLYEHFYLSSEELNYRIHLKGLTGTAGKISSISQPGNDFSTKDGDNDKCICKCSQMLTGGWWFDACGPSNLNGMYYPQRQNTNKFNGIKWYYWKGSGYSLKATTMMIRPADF
Readings of pIC50 for the listed binders
Schema: pIC50 number; meaning minus log10 of the concentration expressed in molar units.

Assign pIC50 to the following record: VHH 00048 (VHH, not shown: small tags and cut ends) VHH: EVQLVESGGGLVQAGGSLRLSCAASGFTLDDYAIGWFRQAPGKEREGVSSIRDSDGSTYYADSVKGRFTISSDNDKNTVYLQMNSLKPEDTAVYYCAAVPAGRLRFGEQWYPLYEYDAWGQGTLVTVSS 9.22

Assign pIC50 to the following record: VHH 00041 (VHH, not shown: small tags and cut ends) VHH: EVQLVESGGGLVQPGGSLRLSCAASGFTLDDYAIGWFRQAPGKEREGVSSIRDNDGSTYYADSVKGRFTISSDNAKNTVYLQMNSLRPEDTAVYYCAAVPAGRLRFGEQWYPLYEYDAWGQGTLVTVSS 9.22

Assign pIC50 to the following record: VHH 00025 (VHH, not shown: small tags and cut ends) VHH: EVQLVESGGGLVQAGGSLRLSCAASGFTLDDYAIGWFRQAPGKEREGVSTIRDSDGSTYYADSVKGRFTISSDNDKNTVYLQMNSLKPEDTAVYYCAAVPAGRLRFGEQWYPLYEYDAWGQGTLVTVSS 8.68

Assign pIC50 to the following record: VHH 28D10 (VHH, not shown: small tags and cut ends) VHH: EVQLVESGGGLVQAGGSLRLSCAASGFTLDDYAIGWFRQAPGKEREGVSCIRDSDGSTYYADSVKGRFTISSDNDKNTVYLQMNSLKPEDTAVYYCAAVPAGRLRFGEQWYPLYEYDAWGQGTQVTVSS 8.74

Assign pIC50 to the following record: VHH 00054 (VHH, not shown: small tags and cut ends) VHH: EVQLVESGGGLVQPGGSLRLSCAASGFTLDDYAIGWFRQAPGKEREGVSSIRDNDGSTYYADSVKGRFTISRDNSKNTVYLQMNSLRPEDTAVYYCAAVPAGRLRFGEQWYPLYEYDAWGQGTLVTVSS 8.02

Continuing:
Assign pIC50 to the following record: VHH 00052 (VHH, not shown: small tags and cut ends) VHH: EVQLVESGGGLVQPGGSLRLSCAASGFTLDDYAIGWFRQAPGKEREGVSSIRDNDGSTYYADSVKGRFTISSDNDKNTVYLQMNSLRPEDTAVYYCAAVPAGRLRFGEQWYPLYEYDAWGQGTLVTVSS 9.00

Assign pIC50 to the following record: VHH 00053 (VHH, not shown: small tags and cut ends) VHH: EVQLVESGGGLVQPGGSLRLSCAASGFTLDDYAIGWFRQAPGKEREGVSSIRDNDGSTYYADSVKGRFTISRDNDKNTVYLQMNSLRPEDTAVYYCAAVPAGRLRFGEQWYPLYEYDAWGQGTLVTVSS 7.97

Assign pIC50 to the following record: VHH 00027 (VHH, not shown: small tags and cut ends) VHH: EVQLVESGGGLVQAGGSLRLSCAASGFTLDDYAIGWFRQAPGKEREGVSSIRDNDGSTYYADSVKGRFTISSDNDKNTVYLQMNSLKPEDTAVYYCAAVPAGRLRFGEQWYPLYEYDAWGQGTLVTVSS 9.15

Assign pIC50 to the following record: VHH 00043 (VHH, not shown: small tags and cut ends) VHH: EVQLVESGGGLVQPGGSLRLSCAASGFTLDDYAIGWFRQAPGKEREGVSSIRDNDGSTYYADSVKGRFTISRDNAKNTVYLQMNSLRPEDTAVYYCAAVPAGRLRFGEQWYPLYEYDAWGQGTLVTVSS 8.02

Assign pIC50 to the following record: VHH 00055 (VHH, not shown: small tags and cut ends) VHH: EVQLVESGGGLVQAGGSLRLSCAASGFTLDDYAIGWFRQAPGKEREGVSSIRDNGGSTYYADSVKGRFTISSDNDKNTVYLQMNSLKPEDTAVYYCAAVPAGRLRFGEQWYPLYEYDAWGQGTLVTVSS 8.74

Assign pIC50 to the following record: VHH 00042 (VHH, not shown: small tags and cut ends) VHH: EVQLVESGGGLVQPGGSLRLSCAASGFTLDDYAIGWFRQAPGKEREGVSSIRDNDGSTYYADSVKGRFTISSDNSKNTVYLQMNSLRPEDTAVYYCAAVPAGRLRFGEQWYPLYEYDAWGQGTLVTVSS 9.15
